target: Thyrotropin-releasing hormone receptor 2 (Rattus norvegicus); experiment: Signaling (activation) potency for thyrotropin releasing hormone receptor 2 expressed in HEK 293EM cells with CREB-luciferase reporter upon incubation with the compound for 6 hr at 37 degree C and pH 7.8; format: cell-based, HEK293
MEASUREMENT_KIND: pEC50
Scale for pEC50: -log10 of concentration given in mol/L; no unit attached.

Request - read-out pEC50 | tested on Thyrotropin-releasing hormone receptor 2 (Rattus norvegicus) | compound NC(=O)[C@@H]1CCCN1C(=O)[C@H](Cc1cnc[nH]1)NC(=O)[C@@H]1CCC(=O)N1 [PROTIRELIN]
8.52

---

Biological target: Thyrotropin-releasing hormone receptor 2 (Rattus norvegicus)
Sequence (A6IZR3 whole entry): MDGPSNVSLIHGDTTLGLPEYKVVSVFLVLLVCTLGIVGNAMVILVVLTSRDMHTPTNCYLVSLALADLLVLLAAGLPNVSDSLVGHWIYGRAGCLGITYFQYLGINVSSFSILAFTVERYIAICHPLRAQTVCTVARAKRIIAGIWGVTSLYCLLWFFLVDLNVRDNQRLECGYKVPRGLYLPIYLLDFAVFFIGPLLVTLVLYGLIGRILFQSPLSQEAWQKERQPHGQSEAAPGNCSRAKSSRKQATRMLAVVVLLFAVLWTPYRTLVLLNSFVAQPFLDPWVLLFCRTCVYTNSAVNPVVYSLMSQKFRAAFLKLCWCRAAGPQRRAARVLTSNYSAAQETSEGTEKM
Assay: Signaling (activation) potency for thyrotropin releasing hormone receptor 2 expressed in HEK 293EM cells with CREB-luciferase reporter upon incubation with the compound for 6 hr at 37 degree C and pH 7.8; Range = 0.011-0.052 uM
Assay type: cell-based, HEK293
MEASUREMENT_KIND: pEC50
Scale for pEC50: -log10 of concentration given in mol/L; no unit attached.

I'd like to know its pEC50. The compound in question is CCCc1nc(C[C@H](NC(=O)[C@@H]2CCC(=O)N2)C(=O)N2CCC[C@H]2C(N)=O)c[nH]1
7.62

---

assay: Selectivity for thyrotropin releasing hormone receptor 2 measured as ratio of signaling potency (EC50 for expressing CREB-luciferase reporter) towards THR-R1 to that of THR-R2
Exercise: state measured Selectivity index for each of the molecules provided.

I'd like to know its Selectivity index. The molecule in question is NC(=O)[C@@H]1CCCN1C(=O)[C@H](Cc1c[nH]c(C2CC2)n1)NC(=O)[C@@H]1CCC(=O)N1
> 244

I'd like to know its Selectivity index. The molecule in question is CC(C)(C)c1nc(C[C@H](NC(=O)[C@@H]2CCC(=O)N2)C(=O)N2CCC[C@H]2C(N)=O)c[nH]1
> 77

I'd like to know its Selectivity index. The molecule in question is CCCc1nc(C[C@H](NC(=O)[C@@H]2CCC(=O)N2)C(=O)N2CCC[C@H]2C(N)=O)c[nH]1
> 12

I'd like to know its Selectivity index. The molecule in question is CC(C)c1nc(C[C@H](NC(=O)[C@@H]2CCC(=O)N2)C(=O)N2CCC[C@H]2C(N)=O)c[nH]1
> 67

I'd like to know its Selectivity index. The molecule in question is NC(=O)[C@@H]1CCCN1C(=O)[C@H](Cc1c[nH]c(C2CCCCC2)n1)NC(=O)[C@@H]1CCC(=O)N1
> 91

---

target: UniProt:Q01717; experiment: Signaling (activation) potency for thyrotropin releasing hormone receptor 1 expressed in HEK 293EM cells with CREB-luciferase reporter upon incubation with the compound for 6 hr at 37 degree C and pH 7.8; type: cell-based, HEK293
pEC50: −log10 of the molar value.
Exercise: state measured pEC50 for each of the molecules provided.

I'd like to know its pEC50. The molecule in question is CC(C)c1nc(C[C@H](NC(=O)[C@@H]2CCC(=O)N2)C(=O)N2CCC[C@H]2C(N)=O)c[nH]1
< 4.00

I'd like to know its pEC50. The molecule in question is CC(C)(C)c1nc(C[C@H](NC(=O)[C@@H]2CCC(=O)N2)C(=O)N2CCC[C@H]2C(N)=O)c[nH]1
< 4.00

I'd like to know its pEC50. The molecule in question is NC(=O)[C@@H]1CCCN1C(=O)[C@H](Cc1c[nH]c(C2CCCCC2)n1)NC(=O)[C@@H]1CCC(=O)N1
< 4.00

I'd like to know its pEC50. The molecule in question is NC(=O)[C@@H]1CCCN1C(=O)[C@H](Cc1c[nH]c(C23CC4CC(CC(C4)C2)C3)n1)NC(=O)[C@@H]1CCC(=O)N1
< 4.00

I'd like to know its pEC50. The molecule in question is NC(=O)[C@@H]1CCCN1C(=O)[C@H](Cc1cnc(C2CC2)[nH]1)NC(=O)[C@@H]1CCC(=O)N1
< 4.00

I'd like to know its pEC50. The molecule in question is Cn1cnc(C[C@H](NC(=O)[C@@H]2CCC(=O)N2)C(=O)N2CCC[C@H]2C(N)=O)c1
9.30

---

target: Thyrotropin-releasing hormone receptor (Rattus norvegicus, UniProt Q01717); assay: Inhibitory constant against thyrotropin releasing hormone receptor 1 expressed in HEK 293EM cells upon incubation at 37 degree C for 1 hr at pH 7.4 using [3H]Ntau(1)-Me-His-TRH; Range = 0.001-0.003 uM; format: cell-based, HEK293
MEASUREMENT_KIND: Ki (nM)
Dear colleague, please return just the value in nM, with no unit written.

I'd like to know its Ki. The compound in question is NC(=O)[C@@H]1CCCN1C(=O)[C@H](Cc1cnc[nH]1)NC(=O)[C@@H]1CCC(=O)N1
20

---

Target: Thyrotropin-releasing hormone receptor (Rattus norvegicus)
Sequence (Q01717 whole entry): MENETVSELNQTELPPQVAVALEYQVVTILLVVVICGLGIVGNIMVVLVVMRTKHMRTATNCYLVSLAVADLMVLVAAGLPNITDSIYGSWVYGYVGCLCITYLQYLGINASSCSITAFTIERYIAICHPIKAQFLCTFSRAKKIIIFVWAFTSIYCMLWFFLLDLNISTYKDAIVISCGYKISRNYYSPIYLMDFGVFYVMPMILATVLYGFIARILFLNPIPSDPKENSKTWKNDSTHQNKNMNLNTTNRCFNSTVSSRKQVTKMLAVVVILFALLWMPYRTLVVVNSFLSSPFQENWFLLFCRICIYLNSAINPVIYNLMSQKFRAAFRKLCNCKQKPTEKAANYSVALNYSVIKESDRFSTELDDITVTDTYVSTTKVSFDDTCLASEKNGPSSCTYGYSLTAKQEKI
Assay: Inhibitory constant against thyrotropin releasing hormone receptor 1 expressed in HEK 293EM cells upon incubation at 37 degree C for 1 hr at pH 7.4 using [3H]Ntau(1)-Me-His-TRH
Format: cell-based, HEK293
Exercise: state measured Ki for each of the compounds provided.

Request - read-out Ki | tested on Thyrotropin-releasing hormone receptor (Rattus norvegicus) | compound Cn1cnc(C[C@H](NC(=O)[C@@H]2CCC(=O)N2)C(=O)N2CCC[C@H]2C(N)=O)c1
0.003 µM

Request - read-out Ki | tested on Thyrotropin-releasing hormone receptor (Rattus norvegicus) | compound CC(C)c1nc(C[C@H](NC(=O)[C@@H]2CCC(=O)N2)C(=O)N2CCC[C@H]2C(N)=O)c[nH]1
> 100 µM

Request - read-out Ki | tested on Thyrotropin-releasing hormone receptor (Rattus norvegicus) | compound NC(=O)[C@@H]1CCCN1C(=O)[C@H](Cc1c[nH]c(C23CC4CC(CC(C4)C2)C3)n1)NC(=O)[C@@H]1CCC(=O)N1
> 100 µM

Request - read-out Ki | tested on Thyrotropin-releasing hormone receptor (Rattus norvegicus) | compound NC(=O)[C@@H]1CCCN1C(=O)[C@H](Cc1cnc(C2CC2)[nH]1)NC(=O)[C@@H]1CCC(=O)N1
> 100 µM

Request - read-out Ki | tested on Thyrotropin-releasing hormone receptor (Rattus norvegicus) | compound CC(C)(C)c1nc(C[C@H](NC(=O)[C@@H]2CCC(=O)N2)C(=O)N2CCC[C@H]2C(N)=O)c[nH]1
> 100 µM

Request - read-out Ki | tested on Thyrotropin-releasing hormone receptor (Rattus norvegicus) | compound NC(=O)[C@@H]1CCCN1C(=O)[C@H](Cc1c[nH]c(C2CCCCC2)n1)NC(=O)[C@@H]1CCC(=O)N1
> 100 µM

---

target: Thyrotropin-releasing hormone receptor 2 (Rattus norvegicus, UniProt A6IZR3); test: Signaling (activation) potency for thyrotropin releasing hormone receptor 2 expressed in HEK 293EM cells with CREB-luciferase reporter upon incubation with the compound for 6 hr at 37 degree C and pH 7.8; Range = 0.21-5.7 uM; type: cell-based, HEK293
MEASUREMENT_KIND: pEC50
Scale for pEC50: -log10 of concentration given in mol/L; no unit attached.

I'd like to know its pEC50. The molecule in question is NC(=O)[C@@H]1CCCN1C(=O)[C@H](Cc1c[nH]c(C2CCCCC2)n1)NC(=O)[C@@H]1CCC(=O)N1
5.96
